Hey, just so you know, these numbers are from patent US20200399712A1.

System: HPV-16
assay.method.text: qPCR sensitivity against HPV-HNSCC tumor samples diluted among 10 ng normal human DNA
recorded.conditions: Sample # 8
measured.attribute: Threshold of tumor cell numbers for HPV-16 detection
Give the number first and the unit second.

Examples with answers:
• E6: previously designed (historical) HPV-16 E6 primers and Taqman probe, SEQ ID NO: 7-9, positive control (nucleic acid, Taqman probe, labels not given here) DNA 1: TCAGGACCCACAGGAGCG DNA 2: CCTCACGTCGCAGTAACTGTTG DNA 3: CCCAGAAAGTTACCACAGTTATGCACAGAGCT = 15.0 tumor cells
• BR E1-4: HPV-16 E1 region primer/probe set, SEQ ID NO: 37-39 (nucleic acid, chemistry not given here) DNA 1: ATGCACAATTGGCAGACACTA DNA 2: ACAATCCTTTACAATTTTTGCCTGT DNA 3: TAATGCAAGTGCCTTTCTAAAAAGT = 50.0 tumor cells

Input line: Tell me Threshold of tumor cell numbers for HPV-16 detection reported for BR E6-1: HPV-16 E6 region (172-373 bp) primer/probe set, SEQ ID NO: 58-60 (nucleic acid, chemistry not given here) DNA 1: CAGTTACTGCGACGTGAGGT DNA 2: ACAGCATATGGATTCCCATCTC DNA 3: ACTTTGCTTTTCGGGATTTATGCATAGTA
Output line: 150.0 tumor cells
